Data origin, for the record: ChEMBL document CHEMBL1151514

target: UniProt:Q9QYN8; assay: The compound was evaluated for agonistic effect on release of [3H]histamine from rat brain cortical slices with L-[3H]histidine at 0.3 uM
Sequence (Q9QYN8 whole entry): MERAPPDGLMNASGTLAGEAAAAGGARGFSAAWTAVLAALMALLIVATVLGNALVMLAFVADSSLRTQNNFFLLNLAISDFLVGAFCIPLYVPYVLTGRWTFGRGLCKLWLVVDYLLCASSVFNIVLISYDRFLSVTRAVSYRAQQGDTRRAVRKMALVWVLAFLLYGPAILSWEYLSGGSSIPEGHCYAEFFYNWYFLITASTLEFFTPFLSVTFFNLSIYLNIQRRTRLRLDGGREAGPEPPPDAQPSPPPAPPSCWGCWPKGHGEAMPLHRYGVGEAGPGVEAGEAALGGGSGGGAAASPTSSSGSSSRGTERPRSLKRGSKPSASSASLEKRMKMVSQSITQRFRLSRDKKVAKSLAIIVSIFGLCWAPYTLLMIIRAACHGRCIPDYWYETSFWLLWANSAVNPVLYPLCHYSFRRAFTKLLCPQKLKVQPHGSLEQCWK
assayMetric: EC50 (nM)
Form entry: value (nM) — number only.

# return recorded EC50 for input Br.CNC(=N)SCCc1c[nH]cn1
15
